- run-description: qHTS of pediatric cancer cell lines to identify multiple opportunities for drug repurposing: Primary screen for A673 cells (AID 1347092); further: nearly all actives have a fitted effect of over 45% in size
- experimental-context: A673 Ewing sarcoma viability, CellTiter-Glo ATP luminescence, 48 h; series mostly up to 46 µM
Records with an inconclusive call do not appear. Calls of active or inactive are those of the source. The call rests on the fitted dose curve; in most records, active means well fitted cell-killing curve with a large enough effect; inconclusive means small, poorly fitted or top-dose-only effect; inactive means no such curve, though single readings can be large or run the other way.
Classes used: active, inactive

                                    compound  class_assignment
 0  Nc1cccc(S(=O)(=O)N2CCCN(S(=O)(=O)c3ccc4c(c3)OCCO4)CC2)c1          inactive
 1  CCn1cc(C(=O)O)c(=O)c2cc(F)c(N3CCNC(C)C3)c(F)c21 (centres undefined)          inactive
 2  COCC(=O)NCC=Cc1ccc2ncnc(Nc3ccc(Oc4ccc(C)nc4)c(C)c3)c2c1            active
 3  CCCn1c(=O)c2[nH]c(C34CC5CC3C[C@@H](C5)C4)nc2n(CCC)c1=O            active
 4  Cc1ccccc1C(OCCN(C)C)c1ccccc1 (centres undefined)          inactive
 5  Cc1cccc(-c2nn(C(=S)Nc3ccccc3)cc2-c2ccnc3ccccc23)n1          inactive
 6  CC(C)(Sc1ccc(CCN(CCCCC2CCCCC2)C(=O)NC2CCCCC2)cc1)C(=O)O            active
 7                           CCCC(CCC)C(=O)O          inactive
 8  CCC(C)N(C)C(=O)c1cc2ccccc2c(-c2ccccc2Cl)n1 (centres undefined)          inactive
 9  CCCc1nn(C)c2c(=O)[nH]c(-c3cc(S(=O)(=O)N4CCN(C)CC4)ccc3OCC)nc12          inactive
10  CC[C@@H](C)[C@H](NC(=O)[C@H](CC1CCCCC1)NC(=O)c1ccno1)C(=O)N1CCC2(CCc3ccccc32)CC1          inactive
11  CC(C)(C)NCC(O)c1ccc(O)c(CO)c1 (centres undefined)          inactive
12  CC(=O)NC(C)c1ccc(Oc2ccc(OC(C)C)cc2)cc1 (centres undefined)            active
13  O=C(O)COCCN1CCN(C(c2ccccc2)c2ccc(Cl)cc2)CC1 (centres undefined)          inactive
14  COCCNCCCn1c(C(=O)CF)c(-c2ccc(C)cc2)c2c(N)ncnc21            active
15  CC1(C)SCCN(S(=O)(=O)c2ccc(OCC#CCO)cc2)[C@@H]1C(=O)NO          inactive
16  O=C(NOC[C@H](O)CO)c1ccc(F)c(F)c1Nc1ccc(I)cc1F            active
17  Cc1cc2c(C(C)C)c(O)c(O)c(C=O)c2c(O)c1-c1c(C)cc2c(C(C)C)c(O)c(O)c(C=O)c2c1O            active
18  C[C@]12CC[C@H](O)CC1=CC[C@@H]1[C@H]2CC[C@]2(C)C(c3cccnc3)=CC[C@H]12          inactive
19  CCn1c(-c2nonc2N)nc2c(C#CC(C)(C)O)ncc(OC[C@H]3CCCNC3)c21            active
20  C[C@]12CCC(=O)C=C1CC[C@@H]1[C@@H]2[C@@H](O)C[C@@]2(C)[C@H]1CC[C@]2(O)C(=O)CO          inactive
21                     O=c1[nH]cnc2[nH]ncc12          inactive
22  O=C1CCCC2=C1C(c1[nH]ncc1Cl)N=C(Nc1nc3ccccc3o1)N2 (centres undefined)          inactive
23  CC(C[N+](C)(C)C)OC(N)=O (centres undefined)          inactive
